Items are presented alongside their recorded composite z-score.
# experimental.target: Torsin-1A-interacting protein 1 (Homo sapiens) (UniProt Q5JTV8)
# Sequence (Q5JTV8 whole entry, looked up): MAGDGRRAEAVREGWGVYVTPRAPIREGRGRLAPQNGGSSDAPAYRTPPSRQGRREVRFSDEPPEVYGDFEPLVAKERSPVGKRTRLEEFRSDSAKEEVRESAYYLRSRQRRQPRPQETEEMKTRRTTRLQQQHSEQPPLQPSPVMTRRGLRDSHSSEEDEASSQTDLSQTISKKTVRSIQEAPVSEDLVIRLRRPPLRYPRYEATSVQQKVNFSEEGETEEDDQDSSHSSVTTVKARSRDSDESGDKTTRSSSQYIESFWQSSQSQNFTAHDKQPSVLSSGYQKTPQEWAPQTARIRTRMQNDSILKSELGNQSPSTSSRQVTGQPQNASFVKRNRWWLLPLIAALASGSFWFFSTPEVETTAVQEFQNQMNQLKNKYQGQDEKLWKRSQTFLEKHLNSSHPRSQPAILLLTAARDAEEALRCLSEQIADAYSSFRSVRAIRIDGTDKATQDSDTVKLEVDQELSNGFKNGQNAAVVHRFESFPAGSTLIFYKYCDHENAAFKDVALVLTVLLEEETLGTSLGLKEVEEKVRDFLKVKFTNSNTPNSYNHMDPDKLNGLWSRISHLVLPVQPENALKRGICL
# test.protocol: LAP1 binders from COS7 cell lysate, primary screen, small-molecule microarray, 635/667 nm fluorescence (AID 1116)
# condition.context: COS7-hLAP1 lysate binding, 635 nm fluorescence, higher = more signal

molecule: O=c1n(Cc2cc3c(cc2Cl)OCO3)c(=O)n2n1CC[C@@H]1C(=NOCc3ccccc3)[C@H]3O[C@H]3[C@@H](O)[C@@H]12
experimental.target: Torsin-1A-interacting protein 1 (Homo sapiens) (UniProt Q5JTV8)
composite z-score: 0.157
--
molecule: O=C1[C@H]2[C@H]3[C@H](O)[C@H](O)CC(=NOCc4ccccc4)[C@H]3CC[C@H]2C(=O)N1Cc1ccc2c(c1)OCO2
experimental.target: Torsin-1A-interacting protein 1 (Homo sapiens) (UniProt Q5JTV8)
composite z-score: 0.336
--
molecule: CCN1C(=O)[C@H]2[C@H]3[C@H](O)[C@H](O)CC(=O)[C@H]3CC[C@H]2C1=O
experimental.target: Torsin-1A-interacting protein 1 (Homo sapiens) (UniProt Q5JTV8)
composite z-score: 0.161
--
molecule: C#CCCCON=C1[C@H]2CCn3c(=O)n(C)c(=O)n3[C@H]2[C@H](O)[C@@H]2O[C@H]12
experimental.target: Torsin-1A-interacting protein 1 (Homo sapiens) (UniProt Q5JTV8)
composite z-score: 0.35

====

# experimental.target: Alpha-bungarotoxin (Bungarus multicinctus)
# test.protocol: alpha-bungarotoxin binders on microarray, profiling panel, artefact control for SMM control protein annotation, biochemical, small-molecule microarray, Alexa647 label, 635/667 nm fluorescence (AID 1117)
# condition.context: alpha-BTX-A647 binding fluorescence, higher = more signal
Items are presented alongside their recorded composite z-score.

molecule: C=CC[C@@H]1C=C[C@H](ON=C2[C@H]3CCn4c(=O)n(-c5ccccc5)c(=O)n4[C@H]3[C@H](O)[C@@H]3O[C@H]23)[C@@H](CO)O1
composite z-score: 0.744
--
molecule: O=C1[C@H]2[C@H]3[C@H](O)[C@H](O)CC(=NOC[C@@H](O)COCc4ccco4)[C@H]3CC[C@H]2C(=O)N1C[C@@H]1CCCO1
composite z-score: 0.349
--
molecule: Cc1ccc(S(=O)(=O)N[C@H]2COC(=O)CC=C[C@H](C)[C@@H](NS(=O)(=O)c3ccc(C)cc3)COC(=O)CC=C[C@@H]2C)cc1
composite z-score: 0.149

====

# test.protocol: A549 lung cancer cell viability effects, profiling panel, resazurin fluorescence, 24 h, PK04 Diversity Set (AID 1171); note: test concentration not given here
# condition.context: higher = more signal, called active from +8 up or from −8 down
Label 1 (yes) when z-score >= 0.4; otherwise 0 (no).

compound: Cc1ccc(S(=O)(=O)N[C@@H]2COC(=O)[C@@H](C)COC(=O)CC=C[C@H]2C)cc1
label: 0 (no)
--
compound: O=c1n(-c2ccccc2)c(=O)n2n1CC[C@@H]1C(=NOCc3ccccc3)[C@H]3O[C@H]3[C@@H](O)[C@@H]12
label: 0 (no)
--
compound: C=CC[C@@H]1C=C[C@H](ON=C(C)CCN2CCc3nc(-c4ccccc4)c(-c4ccccc4)cc3C2)[C@@H](CO)O1
label: 1 (yes)
--
compound: Cn1c(=O)n2n(c1=O)[C@H]1[C@H](O)[C@@H]3O[C@@H]3C(=NOCc3ccccc3)[C@H]1CC2
label: 0 (no)
--
compound: CO[C@@H]1COC(=O)CC=C[C@H](C)[C@H](OC)COC(=O)[C@H](C)NC(=O)CC=C[C@H]1C
label: 1 (yes)
--
compound: COC(=O)[C@@H]1CC[C@H](C)[C@@H](c2ccc(C)cc2)N1C(=O)c1ccc(C=NO[C@H](C)c2cn([C@H](CO)Cc3ccccc3)nn2)cc1
label: 0 (no)
--
compound: CCOC(=O)[C@H](Cc1ccccc1)NC(=O)CCC1CC(OC(=O)NCc2ccc3c(c2)OCO3)CC2(CCCC(COC(=O)NCCC(C)C)O2)O1 (some centres not stated)
label: 0 (no)
--
compound: C[C@H]1CC[C@H]2C(=O)OC(CO)CN2[C@@H]1c1ccc(Br)cc1 (some centres not stated)
label: 1 (yes)
--
compound: CCCNC(=O)OC[C@H]1O[C@H](CCON=C(C)CCN2CCc3nc(CC)c(CC)cc3C2)C=C[C@@H]1Oc1ccc(OC)cc1
label: 0 (no)
--
compound: CON=CC[C@@H]1C=C[C@H](OC(C)=O)[C@@H](COC(C)=O)O1
label: 0 (no)
--
compound: COC(=O)[C@H](C)NC(=O)CCC1CC(OC(=O)NCc2ccc3c(c2)OCO3)CC2(CCCC(COC(=O)NCC3CCCCC3)O2)O1 (some centres not stated)
label: 1 (yes)
--
compound: CCOC(=O)[C@H](CC(C)C)NC(=O)CCC1CC(OC(=O)NCc2cccc3ccccc23)CC2(CCCC(COC(=O)NCCc3ccc(Cl)cc3)O2)O1 (some centres not stated)
label: 0 (no)
--
compound: O=C1[C@H]2[C@H]3[C@H](O)[C@H](O)CC(=NO[C@@H]4O[C@H](CO)[C@@H](O)[C@H](O)[C@H]4O)[C@H]3CC[C@H]2C(=O)N1c1cccc(Oc2ccccc2)c1
label: 1 (yes)
--
compound: CO[C@H]1COC(=O)CC=C[C@H](C)[C@@H](OC)COC(=O)[C@@H](C)COC(=O)CC=C[C@@H]1C
label: 1 (yes)
--
compound: C#CCCCON=C1C[C@@H](O)[C@@H](O)[C@@H]2[C@@H]3C(=O)N(c4ccc(F)cc4F)C(=O)[C@@H]3CC[C@H]12
label: 1 (yes)
--
compound: CON=C[C@@H](C)[C@H](OCc1ccccc1)C(C)C
label: 0 (no)

====

# test.protocol: binders of probe aFSTL3 on microarray, primary screen, stem cell growth factor project, biochemical, small-molecule microarray, fluorescence 635/667 (AID 1064);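 note: measures binding of the biotinylated anti-FSTL3 antibody to printed compounds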
# condition.context: higher = more signal
Items are presented alongside their recorded composite z-score.
endpoint.label: composite z-score

compound: CC(=O)OC[C@H]1O[C@H](CC=NO[C@H](C)c2cn([C@H](CO)Cc3ccccc3)nn2)C=C[C@@H]1OC(C)=O
recorded.result: -0.789

compound: CCOC(=O)[C@H](Cc1ccccc1)NC(=O)CCC1CC(OC(=O)NCc2cccc3ccccc23)CC2(CCCC(COC(=O)NCc3ccccc3)O2)O1 (some centres undefined)
recorded.result: -0.356

compound: CO[C@@H]1COC(=O)CC=C[C@@H](C)[C@@H]2C=C[C@H](O)[C@@H](COC(=O)CC=C[C@H]1C)O2
recorded.result: -0.304

compound: C=CC[C@@H]1C=C[C@H](ON=C(C)CCN2CCc3nc(-c4ccccc4)c(-c4ccccc4)cc3C2)[C@@H](CO)O1
recorded.result: -0.374

compound: O=C1[C@H]2[C@H]3[C@H](O)[C@H](O)CC(=NOC[C@@H](O)COCc4ccco4)[C@H]3CC[C@H]2C(=O)N1C[C@@H]1CCCO1
recorded.result: -0.634

compound: COC(=O)[C@H](C)NC(=O)CCC1CC(OC(=O)NCCc2ccc(F)cc2)CC2(CCCC(COC(=O)NCCC(C)C)O2)O1 (some centres undefined)
recorded.result: -0.279

compound: CCCCc1nc2c(c3c1C[C@H](C)OC3)CN(CCOc1ccccc1)CC2
recorded.result: -0.43

compound: C=CC[C@@H]1C=C[C@H](ON=C(C)CCC(=O)OC[C@H]2O[C@H](C#Cc3ccccc3)C=C[C@@H]2Oc2ccc(C)cc2)[C@@H](CO)O1
recorded.result: -0.566

compound: CC(C)=CCCC(C)=CCON=C1C[C@@H](O)[C@@H](O)[C@@H]2[C@@H]3C(=O)N(C[C@@H]4CCCO4)C(=O)[C@@H]3CC[C@H]12
recorded.result: -0.532

compound: CO[C@H]1COC(=O)CC=C[C@H](C)[C@@H](OC)COC(=O)[C@@H](C)NC(=O)CC=C[C@@H]1C
recorded.result: -0.548

compound: CON=C[C@@H](C)[C@H](OCc1ccccc1)C(C)C
recorded.result: 0.797

compound: CC(=O)O[C@H]1C2=CO[C@H](C)[C@H]3[C@H]4C5=C([C@H](O)[C@H]6O[C@H]6C5=O)[C@H](OC4C)[C@@]23C(=O)[C@@H]2O[C@@H]21 (some centres undefined)
recorded.result: -0.186

compound: C=CC[C@@H]1C=C[C@H](ON=C(C)CCC(=O)OC[C@H]2O[C@H](c3ccccc3)C=C[C@@H]2Oc2ccc(OC)cc2)[C@@H](CO)O1
recorded.result: -0.409

compound: CO[C@H]1COC(=O)[C@H](C)NC(=O)CC=C[C@@H](C)[C@H](OC)COC(=O)[C@@H](OCc2ccccc2)C=C[C@@H]1C
recorded.result: -0.628

compound: COc1ccc(C#C[C@@H]2C=C[C@H](OC(C)=O)[C@@H](COC(C)=O)O2)cc1
recorded.result: -0.068

compound: COc1ccc(O[C@H]2C=C[C@@H](c3ccccc3)O[C@@H]2CON=C(C)CCC(=O)OC[C@H]2O[C@H](c3ccccc3)C=C[C@@H]2Oc2ccc(OC)cc2)cc1
recorded.result: 0.0321

compound: COC(=O)[C@H](C)NC(=O)CCC1CC(OC(=O)NCc2ccc3c(c2)OCO3)CC2(CCCC(COC(=O)NCc3cccc(C(F)(F)F)c3)O2)O1 (some centres undefined)
recorded.result: -0.0199

compound: C[C@H](ON=C1[C@H]2CCn3c(=O)n(-c4ccccc4)c(=O)n3[C@H]2[C@H](O)[C@@H]2O[C@H]12)c1cn([C@H](CO)Cc2ccccc2)nn1
recorded.result: -0.317

compound: CC(C)=CCCC(C)=CCON=C1C[C@@H](O)[C@@H](O)[C@@H]2[C@@H]3C(=O)N(C4CCCCC4)C(=O)[C@@H]3CC[C@@H]12
recorded.result: 1.18

Reference for the values: PubChem BioAssay
